Taken from ChEMBL document CHEMBL1150400.

Give measured IC50 for each item. Keep answers brief.
Molecular target: Acetylcholinesterase (Bos taurus)
Sequence (P23795 whole entry): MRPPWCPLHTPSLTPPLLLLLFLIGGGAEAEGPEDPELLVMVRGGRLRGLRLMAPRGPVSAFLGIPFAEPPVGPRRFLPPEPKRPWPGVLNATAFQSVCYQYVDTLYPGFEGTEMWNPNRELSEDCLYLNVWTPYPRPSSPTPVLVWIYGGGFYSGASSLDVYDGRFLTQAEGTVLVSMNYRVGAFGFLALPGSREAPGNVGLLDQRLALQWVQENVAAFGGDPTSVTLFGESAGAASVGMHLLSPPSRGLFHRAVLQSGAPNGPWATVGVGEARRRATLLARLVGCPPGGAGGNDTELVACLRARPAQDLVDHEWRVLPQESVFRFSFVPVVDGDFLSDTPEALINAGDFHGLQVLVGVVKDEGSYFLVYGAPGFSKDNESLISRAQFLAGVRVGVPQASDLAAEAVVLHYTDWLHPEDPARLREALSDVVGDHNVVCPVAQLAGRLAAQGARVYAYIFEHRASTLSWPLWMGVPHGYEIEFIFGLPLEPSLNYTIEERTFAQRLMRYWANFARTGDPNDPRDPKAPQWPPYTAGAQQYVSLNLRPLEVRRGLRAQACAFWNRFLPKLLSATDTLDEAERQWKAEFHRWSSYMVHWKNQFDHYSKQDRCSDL
Experiment: Inhibition of acetylcholinesterase from bovine erythrocyte

Data request: Give the measured IC50 of C=C[C@@H]1[C@H]2C=C(C(=O)O)C[C@]1(NC)c1ccc(=O)[nH]c1C2 .
Data returned: > 200 µM

Data request: And then C=C[C@@H]1[C@H]2C=C(C(=O)O)C[C@]1(N(C)C)c1ccc(=O)[nH]c1C2 , what is it?
Data returned: > 200 µM

Data request: Same for C=C[C@@H]1[C@H]2C=C(CO)C[C@]1(N)c1ccc(=O)[nH]c1C2
Data returned: 25 µM
